Provenance of the data: patent US12064426B2

Listed next: entries and their corresponding IC50.
- Assay target: Recombinant ROCK2 (amino acids 5-554) (Homo sapiens)
- Construct: ROCK2 (amino acids 5-554); by word order, ROCK2 from SignalChem
- Sequence (O75116 5-554): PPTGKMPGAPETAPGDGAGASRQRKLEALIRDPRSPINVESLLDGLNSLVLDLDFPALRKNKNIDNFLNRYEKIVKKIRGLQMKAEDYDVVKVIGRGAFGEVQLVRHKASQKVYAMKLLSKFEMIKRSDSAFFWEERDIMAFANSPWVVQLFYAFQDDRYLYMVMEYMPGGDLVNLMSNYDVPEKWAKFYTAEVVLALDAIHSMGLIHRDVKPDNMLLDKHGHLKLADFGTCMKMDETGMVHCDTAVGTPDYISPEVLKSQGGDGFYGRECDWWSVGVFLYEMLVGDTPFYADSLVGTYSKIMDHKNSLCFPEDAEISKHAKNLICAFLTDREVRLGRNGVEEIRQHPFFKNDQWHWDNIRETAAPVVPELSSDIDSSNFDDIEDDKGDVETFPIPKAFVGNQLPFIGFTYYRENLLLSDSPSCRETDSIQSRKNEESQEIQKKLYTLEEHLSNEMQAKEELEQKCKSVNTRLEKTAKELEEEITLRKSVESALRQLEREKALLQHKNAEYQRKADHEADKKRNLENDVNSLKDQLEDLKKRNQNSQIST
- Test protocol: ROCK inhibition assay, LANCE Ultra TR-FRET kinase assay (ROCK2)
- Assay conditions: 4 μM ATP, 50 nM ULight-CREBtide substrate

1. CNC(=O)c1cc(F)cc(Cn2ccc3cc(-c4cn[nH]c4Cl)ccc3c2=O)c1 = < 10 nM
2. [2H]C([2H])([2H])NC(=O)c1cccc(C(C)n2ccc3cc(-c4cn[nH]c4C(F)F)ccc3c2=O)c1 (stereo not drawn) = < 10 nM
3. COc1cccc(Cn2cnc3cc(-c4ccnc(N)c4)ccc3c2=O)c1 = 10 to 100 nM

Report IC50 for Nc1cc(-c2ccc3c(=O)n(Cc4cccc(C(=O)NCCc5ccccn5)c4)cnc3c2)ccn1 please.
< 10 nM

Report IC50 for CN1CCC(NC(=O)c2cccc(Cn3cnc4cc(-c5cn[nH]c5Cl)ccc4c3=O)c2)CC1 please.
< 10 nM

Report IC50 for COc1cc(F)cc(Cn2cnc3cc(-c4c[nH]nc4Cl)ccc3c2=O)c1 please.
< 10 nM

Report IC50 for Cc1[nH]ncc1-c1ccc2c(=O)n(C(CO)c3cccc(Cl)c3)cnc2c1 (stereo not drawn) please.
10 to 100 nM

Report IC50 for CNC(=O)c1cccc([C@@H](C)n2cnc3cc(-c4cn[nH]c4N)ccc3c2=O)c1 please.
< 10 nM

Report IC50 for O=C(Nc1cccc(Cn2ccc3cc(-c4c[nH]nc4C(F)F)ccc3c2=O)c1)C1COC1 please.
10 to 100 nM
